- SYSTEM NAME: UniProtKB P10276
- Sequence (P10276 183-417 limits assumed): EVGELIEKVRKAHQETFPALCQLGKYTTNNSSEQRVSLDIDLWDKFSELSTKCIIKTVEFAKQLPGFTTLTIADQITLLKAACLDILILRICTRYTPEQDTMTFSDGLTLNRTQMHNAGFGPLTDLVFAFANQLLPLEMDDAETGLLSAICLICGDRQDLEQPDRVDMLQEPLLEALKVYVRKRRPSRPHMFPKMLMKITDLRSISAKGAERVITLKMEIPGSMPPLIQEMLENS
- MEASUREMENT DESCRIPTION: chimeric receptor transactivation assay, RARα
- Type: cell-based
- TEST CONTEXT: percentage of maximum compared to standard TTNPB
REPORTED METRIC: % Efficiency α (%)

[I] CC1(C)CCC(C)(C)c2cc(C(C=Cc3ccc(C(=O)O)cc3)=NO)ccc21 [drawing 8]
[II] CC1(C)CC(C)(C)c2cc(C(C=Cc3ccc(C(=O)O)cc3)=NO)ccc21 [drawing 31]
[III] CC1(C)CCSc2ccc(C(C=Cc3ccc(C(=O)O)cc3)=NO)cc21 [drawing 18]
[IV] CC1=CCC(C)(C)c2cc(C(/C=C/c3ccc(C(=O)O)cc3)=N/O)ccc21
Your job: order these 4 records by % Efficiency α, ascending. # output: labels, in the requested order
IV, II, I, III

[I] CC1(C)CCCc2ccc(C(C=Cc3ccc(C(=O)O)cc3)=NO)cc21 [drawing 12]
[II] COc1cc2c(cc1C(/C=C/c1ccc(C(=O)O)cc1)=N/O)C(C)(C)CCC2(C)C
[III] CC1(C)CCC(C)(C)c2cc(C(C=Cc3ccc(C(=O)O)cc3)=NO)ccc21 [drawing 9]
[IV] CC1(C)CCCc2ccc(C(/C=C/c3ccc(C(=O)O)cc3F)=N\O)cc21
hey, can you rank those molecules up there by % Efficiency α? biggest number first please Put the labels in the order asked and list them.
IV, III, I, II
(IV: 120%, III: 81%, I: 51%, II: 29%)
